- test.target: recombinant human CK2 (Homo sapiens, UniProt P68400)
- Construct: purchased Upstate
- Sequence (P68400 whole entry): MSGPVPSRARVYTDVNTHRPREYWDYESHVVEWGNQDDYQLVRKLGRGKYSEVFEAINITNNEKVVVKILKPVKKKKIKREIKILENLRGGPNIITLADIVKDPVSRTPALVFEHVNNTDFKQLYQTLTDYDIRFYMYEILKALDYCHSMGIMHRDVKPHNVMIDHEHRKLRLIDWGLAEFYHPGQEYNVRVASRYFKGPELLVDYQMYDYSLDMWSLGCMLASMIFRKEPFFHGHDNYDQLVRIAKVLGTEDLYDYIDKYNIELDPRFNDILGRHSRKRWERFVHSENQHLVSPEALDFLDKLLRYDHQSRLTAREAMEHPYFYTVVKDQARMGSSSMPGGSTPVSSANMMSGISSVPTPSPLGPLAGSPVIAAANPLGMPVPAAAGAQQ
- Sequence (P67870 whole entry partner): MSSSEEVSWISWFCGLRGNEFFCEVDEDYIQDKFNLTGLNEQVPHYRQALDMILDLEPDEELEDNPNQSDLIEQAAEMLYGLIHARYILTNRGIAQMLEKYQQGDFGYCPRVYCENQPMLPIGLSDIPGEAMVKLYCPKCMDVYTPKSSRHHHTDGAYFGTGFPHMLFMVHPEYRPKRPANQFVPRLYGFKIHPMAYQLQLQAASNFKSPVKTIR
- method.summary: CK2 assay (cell-free, 33P-ATP filter plate)
- Type: biochemical
- recorded.conditions: Table 1
assay.endpoint: IC50 (nM)

Please review the entries below; each comes with its answer.
O=C1NC(=S)S/C1=C\c1ccc(-c2ccccc2C(=O)O)o1
3790
NC(=O)c1cccc(-c2ccc(/C=C3\SC(=S)NC3=O)o2)c1
4
CCN(CC)CCNC(=O)c1cc(-c2ccc(/C=C3\SC(=S)NC3=O)o2)ccc1Cl
10
CN(C)NC(=O)c1cccc(-c2ccc(/C=C3\SC(=S)NC3=O)o2)c1
94

1 = CCN(CC)CCNC(=O)c1ccc(-c2ccc(/C=C3\SC(=S)NC3=O)o2)cc1
2 = O=C1NC(=S)S/C1=C\c1ccc(-c2cccc(C(=O)NN3CCN(CCO)CC3)c2)o1
*Q* Which shows the larger IC50 value: 1 or 2 ? State the label of the item chosen.
*A* 2
(2: 288 nM, 1: 131 nM)

###

Parameter pIC50: see the listing below.
- test.target: recombinant human CK2 (Homo sapiens, UniProt P68400)
- Construct: purchased Upstate
- method.summary: CK2 assay (cell-free, 33P-ATP filter plate)
- Type: biochemical
- recorded.conditions: Table 5
pIC50: −log10 of the molar value.

Please review the entries below; each comes with its answer.
O=C1NC(=O)/C(=C\c2ccc(F)c(-c3cncc(N4CCCN(C(=O)c5ccccc5F)CC4)n3)c2)S1
> 7.30
CN1CCCN(c2cncc(-c3ccc(/C=C4/SC(=O)NC4=O)c(F)c3)n2)CC1
< 5.30
CCOC(=O)N1CCCN(c2cncc(-c3cc(/C=C4/SC(=O)NC4=O)ccc3F)n2)CC1
> 7.30
CC(C)(C)CC(=O)N1CCCN(c2cncc(-c3cc(/C=C4/SC(=O)NC4=O)ccc3F)n2)CC1
> 7.30

In the following, a different compound is considered.
Lab book: pIC50 of `O=C1NC(=O)/C(=C\c2ccc(F)c(-c3cncc(N4CCCN(C(=O)Oc5ccccc5)CC4)n3)c2)S1` noted as > 7.30

###

- test.target: recombinant PIM-1 (Homo sapiens)
- method.summary: PIM-1 assay (33P-ATP filter plate)
- Type: biochemical
- recorded.conditions: Table 5; read-out: PIM1: IC50
assay.endpoint: IC50 (µM)

a = CN1CCCN(c2cncc(-c3cccc(/C=C4\SC(=O)N(C)C4=O)c3)n2)CC1
b = CN1CCCN(c2cncc(-c3ccc(/C=C4/SC(=O)NC4=O)c(F)c3)n2)CC1
*Q* Of a and b , which carries the smaller reported IC50 figure? State the label of the item chosen.
*A* a
(a: 0.44 µM, b: 1.18 µM)

###

- test.target: recombinant PIM-1 (Homo sapiens, UniProt P11309)
- Sequence (P11309 whole entry): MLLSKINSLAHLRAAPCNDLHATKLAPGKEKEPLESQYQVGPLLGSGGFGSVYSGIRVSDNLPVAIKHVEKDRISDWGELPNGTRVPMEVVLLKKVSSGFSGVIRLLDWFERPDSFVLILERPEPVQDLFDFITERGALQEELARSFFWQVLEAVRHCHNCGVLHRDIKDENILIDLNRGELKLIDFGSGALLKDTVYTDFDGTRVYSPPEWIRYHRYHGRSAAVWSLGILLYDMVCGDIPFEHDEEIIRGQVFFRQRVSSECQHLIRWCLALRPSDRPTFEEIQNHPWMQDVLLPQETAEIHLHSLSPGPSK
- method.summary: PIM-1 assay (33P-ATP filter plate)
- Type: biochemical
- recorded.conditions: Table 1; read-out: PIM1: IC50
assay.endpoint: IC50 (nM)

Please review the entries below; each comes with its answer.
Cn1cncc1CNC(=O)c1ccc(-c2ccc(/C=C3\SC(=S)NC3=O)o2)cc1
35
CN1CCCCC1CNC(=O)c1ccc(-c2ccc(/C=C3\SC(=S)NC3=O)o2)cc1 (stereo not shown)
37
NC(=O)c1cccc(-c2ccc(/C=C3\SC(=S)NC3=O)o2)c1
4
CN1CCCN(C(=O)c2ccccc2-c2ccc(/C=C3\SC(=S)NC3=O)o2)CC1
1300

A = COCCNC(=O)c1cc(-c2ccc(/C=C3\SC(=S)NC3=O)o2)ccc1Cl
B = CCNC(=O)c1cccc(-c2ccc(/C=C3\SC(=S)NC3=O)o2)c1
C = CN1CCN(C(=O)c2ccc(-c3ccc(/C=C4\SC(=S)NC4=O)o3)cc2)CC1
*Q* // sort entries: IC50, high to low Respond with an ordered listing of the labels, as requested.
*A* C, A, B
(C: 64 nM, A: 42 nM, B: 28 nM)

###

- test.target: recombinant PIM-1 (Homo sapiens)
- method.summary: PIM-1 assay (33P-ATP filter plate)
- Assay type: biochemical
- recorded.conditions: Table 1; read-out: PIM1: IC50
assay.endpoint: IC50 (µM)

CN(C)NC(=O)c1cccc(-c2ccc(/C=C3\SC(=S)NC3=O)o2)c1
0.036
CN1CCC(N(C)C(=O)c2ccc(-c3ccc(/C=C4\SC(=S)NC4=O)o3)cc2)C1 (stereo not drawn)
0.037
